Assignment: determine reported relative viability for the given compounds.
# Tested on: PC-3 [JPC-3]
# experiment: relative viability (nuclei count vs DMSO), 5 days (fraction); higher = more cells survive
# assayContext: first compound 0.253 µM
One number for each entry.

See these solved cases before continuing.
C=C1C(=O)O[C@@H](CCCCCCCC)[C@@H]1C(=O)O [C-75] + CCNC(=O)c1noc(-c2cc(C(C)C)c(O)cc2O)c1-c1ccc(CN2CCOCC2)cc1 [Luminespib] (partner 0.01 µM)	0.667
Oc1nc(-c2ccc(C(F)(F)F)cc2)nc2c1CSCC2 [XAV939] + O=C(c1cc(Cc2n[nH]c(=O)c3ccccc23)ccc1F)N1CCN(C(=O)C2CC2)CC1 [Olaparib] (partner 8 µM)	0.997
C=C1C(=O)O[C@@H](CCCCCCCC)[C@@H]1C(=O)O [C-75] + C[C@@H](Oc1cc(-c2cnn(C3CCNCC3)c2)cnc1N)c1c(Cl)ccc(F)c1Cl [Crizotinib] (partner 1 µM)	0.99
Oc1nc(-c2ccc(C(F)(F)F)cc2)nc2c1CSCC2 [XAV939] + CC(=O)c1c(C)c2cnc(Nc3ccc(N4CCNCC4)cn3)nc2n(C2CCCC2)c1=O [Palbociclib] (partner 0.5 µM)	0.5

Turning to the following compound.
Enquiry: Please look up its relative viability: Oc1nc(-c2ccc(C(F)(F)F)cc2)nc2c1CSCC2 [XAV939] + CS(=O)(=O)N1CCN(Cc2cc3nc(-c4cccc5[nH]ncc45)nc(N4CCOCC4)c3s2)CC1 [Pictilisib] (partner 1 µM)
Return: 0.602

---

# Test system: NCI-H1993
# experiment: relative viability (nuclei count vs DMSO), 5 days (fraction); higher = more cells survive
# assayContext: first compound 2.53 µM
measure: relative viability
Answers are plain numbers.

See these solved cases before continuing.
Oc1nc(-c2ccc(C(F)(F)F)cc2)nc2c1CSCC2 [XAV939] + CS(=O)(=O)CCNCc1ccc(-c2ccc3ncnc(Nc4ccc(OCc5cccc(F)c5)c(Cl)c4)c3c2)o1 [Lapatinib] (partner 2 µM)	0.702
Oc1nc(-c2ccc(C(F)(F)F)cc2)nc2c1CSCC2 [XAV939] + N=C(N)NC(=N)NCCc1ccccc1 [Phenformin] (partner 250 µM)	0.511

Turning to the following molecule.
Enquiry: For NCI-H1993, provide relative viability of C=C1C(=O)O[C@@H](CCCCCCCC)[C@@H]1C(=O)O [C-75] + NC(=O)Nc1cc(-c2cccc(F)c2)sc1C(=O)N[C@H]1CCCNC1 [AZD7762] (partner 0.2 µM) please.
Return: 0.687

---

# Tested on: NCI-H1755
# experiment: relative viability (nuclei count vs DMSO), 5 days (fraction); higher = more cells survive
# assayContext: first compound 2.53 µM
measure: relative viability
Answers are plain numbers.

C=C1C(=O)O[C@@H](CCCCCCCC)[C@@H]1C(=O)O [C-75] + CCNC(=O)c1noc(-c2cc(C(C)C)c(O)cc2O)c1-c1ccc(CN2CCOCC2)cc1 [Luminespib] (partner 0.01 µM)	0.467
Oc1nc(-c2ccc(C(F)(F)F)cc2)nc2c1CSCC2 [XAV939] + Cc1nc(Nc2ncc(C(=O)Nc3c(C)cccc3Cl)s2)cc(N2CCN(CCO)CC2)n1 [Dasatinib] (partner 0.075 µM)	0.413
Oc1nc(-c2ccc(C(F)(F)F)cc2)nc2c1CSCC2 [XAV939] + CS(=O)(=O)N1CCN(Cc2cc3nc(-c4cccc5[nH]ncc45)nc(N4CCOCC4)c3s2)CC1 [Pictilisib] (partner 1 µM)	0.388
Oc1nc(-c2ccc(C(F)(F)F)cc2)nc2c1CSCC2 [XAV939] + CC1(C)CCC(c2ccc(Cl)cc2)=C(CN2CCN(c3ccc(C(=O)NS(=O)(=O)c4ccc(N[C@H](CCN5CCOCC5)CSc5ccccc5)c(S(=O)(=O)C(F)(F)F)c4)cc3)CC2)C1 [Navitoclax] (partner 0.5 µM)	0.853

Provide relative viability for all items below, preserving their order.
1. Oc1nc(-c2ccc(C(F)(F)F)cc2)nc2c1CSCC2 [XAV939] + Nc1ncn([C@H]2C[C@H](O)[C@@H](CO)O2)c(=O)n1 [Decitabine] (partner 2 µM)
2. C=C1C(=O)O[C@@H](CCCCCCCC)[C@@H]1C(=O)O [C-75] + CC(=O)Nc1cccc(-n2c(=O)n(C3CC3)c(=O)c3c(Nc4ccc(I)cc4F)n(C)c(=O)c(C)c32)c1 [Trametinib] (partner 0.02 µM)
3. Oc1nc(-c2ccc(C(F)(F)F)cc2)nc2c1CSCC2 [XAV939] + COc1cc2c(Oc3ccc(NC(=O)C4(C(=O)Nc5ccc(F)cc5)CC4)cc3F)ccnc2cc1OCCCN1CCOCC1 [Foretinib] (partner 0.25 µM)
4. C=C1C(=O)O[C@@H](CCCCCCCC)[C@@H]1C(=O)O [C-75] + COc1cccc2cc(-c3nc([C@H]4CC[C@H](C(=O)O)CC4)n4ncnc(N)c34)[nH]c12 [OSI-027] (partner 0.5 µM)
5. C=C1C(=O)O[C@@H](CCCCCCCC)[C@@H]1C(=O)O [C-75] + CC(C)C[C@H](NC(=O)[C@H](Cc1ccccc1)NC(=O)c1cnccn1)B(O)O [Bortezomib] (partner 0.002 µM)
6. C=C1C(=O)O[C@@H](CCCCCCCC)[C@@H]1C(=O)O [C-75] + Nc1ncn([C@H]2C[C@H](O)[C@@H](CO)O2)c(=O)n1 [Decitabine] (partner 2 µM)

Return:
1. 0.691
2. 0.677
3. 0.809
4. 0.604
5. 0.805
6. 0.646

Provide relative viability for all items below, preserving their order.
1. Oc1nc(-c2ccc(C(F)(F)F)cc2)nc2c1CSCC2 [XAV939] + NC(=O)Nc1cc(-c2cccc(F)c2)sc1C(=O)N[C@H]1CCCNC1 [AZD7762] (partner 0.2 µM)
2. C=C1C(=O)O[C@@H](CCCCCCCC)[C@@H]1C(=O)O [C-75] + Cc1nc(NC(=O)N2CCC[C@H]2C(N)=O)sc1-c1ccnc(C(C)(C)C(F)(F)F)c1 [Alpelisib] (partner 2 µM)

Return:
1: 0.458; 2: 0.739
